target: T1, GST-human NOGO-A56 (human, UniProt P08515 1-218 = GST); experiment: SPR (Biacore) off-rate ranking, CHO-K1 transient supernatant over GST-human NOGO-A56 chip; single experiment
T1 construct: GST-tagged fusion expressed in E. coli BL21 and purified on glutathione-sepharose; coated on ELISA plates or amine-coupled to a CM5 chip; also called hNOGO; recombinant human NOGO
T1 sequence (P08515 1-218, tags or fused parts left off): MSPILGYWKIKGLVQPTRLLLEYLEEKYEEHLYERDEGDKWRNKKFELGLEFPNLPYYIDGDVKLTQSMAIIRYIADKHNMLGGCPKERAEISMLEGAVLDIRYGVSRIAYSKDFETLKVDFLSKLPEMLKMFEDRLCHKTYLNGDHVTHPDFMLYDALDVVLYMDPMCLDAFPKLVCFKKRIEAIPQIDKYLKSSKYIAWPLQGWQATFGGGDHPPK

binder | koff [s⁻¹]
H14L18 (antibody, human IgG1, kappa, V domains shown) VH: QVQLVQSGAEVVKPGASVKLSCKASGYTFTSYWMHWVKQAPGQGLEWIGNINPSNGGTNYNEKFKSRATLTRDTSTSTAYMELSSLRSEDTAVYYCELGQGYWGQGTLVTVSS VL: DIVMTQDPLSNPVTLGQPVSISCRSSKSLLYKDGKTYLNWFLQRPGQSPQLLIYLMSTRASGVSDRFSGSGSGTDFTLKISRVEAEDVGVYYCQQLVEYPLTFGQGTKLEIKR | 0.00835
H6L15 (antibody, human IgG1, kappa, V domains shown, Tested as CHO-K1 supernatant) VH: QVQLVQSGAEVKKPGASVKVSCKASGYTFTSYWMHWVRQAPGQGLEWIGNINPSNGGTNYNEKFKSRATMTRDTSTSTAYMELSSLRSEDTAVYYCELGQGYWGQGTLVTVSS VL: DIVMTQSPLSLPVTLGQPASISCRSSKSLLYKDGKTYLNWFLQRPGQSPQLLIYLMSTRASGVSDRFSGGGSGTDFTLKISRVEAEDVGVYYCQQLVEYPLTFGQGTKLEIKR | 0.0211
H14L13 (antibody, human IgG1, kappa, V domains shown, Tested as CHO-K1 supernatant) VH: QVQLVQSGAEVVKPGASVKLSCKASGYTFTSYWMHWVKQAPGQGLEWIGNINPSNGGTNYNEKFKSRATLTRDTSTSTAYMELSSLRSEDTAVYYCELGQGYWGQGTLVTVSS VL: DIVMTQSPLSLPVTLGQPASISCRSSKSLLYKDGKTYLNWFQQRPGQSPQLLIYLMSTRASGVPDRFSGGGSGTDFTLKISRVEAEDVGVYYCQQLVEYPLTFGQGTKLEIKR | 0.0138
